Cited source: ChEMBL document CHEMBL1140227

This section presents compounds with their documented growth percent at 10 µM values.
# Procedure Summary: cells
# Format: functional
# Measurement Parameters: Homo sapiens, Cancer cell lines
# Description: Growth inhibition of human Breast cancer cells at 10 uM relative to control
Property Measured: growth percent at 10 µM (%)

* O=C(/C=C/c1cn(CC(=O)Nc2ccccc2)nn1)NO | 71
* O=C(/C=C/c1cn(CC(=O)c2ccccc2)nn1)NO | 78
* O=C(/C=C/c1cn(CCc2ccccc2)nn1)NO | 40
* O=C(/C=C/c1cn(C/C=C/c2ccccc2)nn1)NO | 8

---

Recorded growth, % of control at 10 µM by entry
# System: A549
# Procedure Summary: Growth inhibition of human A549 cells at 10 uM relative to control
# Type: functional
# Measurement Parameters: values are per cent of control
Property Measured: growth, % of control at 10 µM

* O=C(/C=C/c1cn(CC(=O)c2ccccc2)nn1)NO | 54.1%
* O=C(/C=C/c1cn(CCc2ccccc2)nn1)NO | 54.2%
* O=C(NO)c1cn(C/C=C/c2ccccc2)nn1 | 107%
* O=C(/C=C/c1cn(C/C=C/c2ccccc2)nn1)NO | -8.94%
* O=C(Cn1cc(C(=O)NO)nn1)c1ccccc1 | 103%
* O=C(/C=C/c1cn(CC(=O)Nc2ccccc2)nn1)NO | 91.2%
